Target: TLR7 (Homo sapiens, UniProt Q9NYK1)
Construct: Human peripheral blood mononuclear cells (PBMCs) consist of lymphocytes, monocytes and dendritic cells that express TLR7, TLR8 and TLR9; endogenous in cells; host or cells: cryopreserved human PBMCs from healthy donors
Sequence (Q9NYK1 27-1049): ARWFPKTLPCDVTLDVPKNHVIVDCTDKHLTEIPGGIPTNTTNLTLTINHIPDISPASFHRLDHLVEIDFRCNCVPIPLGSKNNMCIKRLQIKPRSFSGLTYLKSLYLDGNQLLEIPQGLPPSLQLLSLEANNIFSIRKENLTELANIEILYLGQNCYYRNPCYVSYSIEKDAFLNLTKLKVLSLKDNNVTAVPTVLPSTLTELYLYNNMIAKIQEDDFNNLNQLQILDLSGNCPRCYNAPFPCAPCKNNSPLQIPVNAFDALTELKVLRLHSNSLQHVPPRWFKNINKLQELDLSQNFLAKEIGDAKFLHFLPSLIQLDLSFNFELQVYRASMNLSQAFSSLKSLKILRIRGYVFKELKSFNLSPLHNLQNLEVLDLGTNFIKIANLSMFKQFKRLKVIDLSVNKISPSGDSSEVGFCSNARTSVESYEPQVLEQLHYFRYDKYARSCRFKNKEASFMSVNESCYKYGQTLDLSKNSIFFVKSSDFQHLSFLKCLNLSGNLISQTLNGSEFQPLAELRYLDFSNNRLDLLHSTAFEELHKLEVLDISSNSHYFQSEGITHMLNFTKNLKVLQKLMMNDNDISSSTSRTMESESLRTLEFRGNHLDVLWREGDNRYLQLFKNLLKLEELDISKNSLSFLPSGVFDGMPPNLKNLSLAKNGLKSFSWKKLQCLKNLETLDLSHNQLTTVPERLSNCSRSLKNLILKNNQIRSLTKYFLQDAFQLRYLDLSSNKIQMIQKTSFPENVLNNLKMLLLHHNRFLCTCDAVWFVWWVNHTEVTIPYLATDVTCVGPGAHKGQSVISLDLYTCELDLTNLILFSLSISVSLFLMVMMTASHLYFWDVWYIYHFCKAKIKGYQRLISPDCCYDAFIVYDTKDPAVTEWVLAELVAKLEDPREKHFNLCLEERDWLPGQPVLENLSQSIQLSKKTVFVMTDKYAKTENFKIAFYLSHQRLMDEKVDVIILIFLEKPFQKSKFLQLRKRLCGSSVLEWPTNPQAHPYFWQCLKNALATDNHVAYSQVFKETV
Test: TLR7 human peripheral blood mononuclear cell (PBMC) cell-based assay
Conditions: human PBMCs; 1 h with test antagonist, then TLR7 agonist GS-986 400 nM for 6 h; cytokines (IL-6 and IFNα) in supernatant; read-out: TLR-7 EC50
From the text: TLR7/9 Human Peripheral Blood Mononuclear Cell (PBMC) Cell-Based Assay Human peripheral blood mononuclear cells (PBMCs) consist of lymphocytes, monocytes and dendritic cells that express TLR7, TLR8 and TLR9. These cells respond to TLR7, TLR8 and TLR9 ligand stimulation and produce cytokines and chemokines in vitro and in vivo. Human PBMCs are therefore suitable to be used in a cell-based assay to assess the in vitro potency of a TLR 7, 8, and/or 9 antagonist. […]
pEC50: −log10 of the molar value.
ASSAY_READOUT: pEC50

>>> print(df.to_string())
                           structure_smiles  assay_readout  numeric_readout
0  Cc1c(C2CCN(Cc3ccn(C)n3)CC2)sc2[nH]c(-c3cn4ncnc4c4c3CCC4)c(C(C)C)c12          pEC50             8.84
1  CC(C)c1c(-c2cn3ncnc3c3c2CCC3)[nH]c2sc(C(=O)N3CCNCC3)cc12          pEC50             9.11
2  Cc1c(C2CCN(C(=O)[C@H]3COCCN3)CC2)sc2[nH]c(-c3cn4ncnc4c4c3COC4)c(C(C)C)c12          pEC50             8.93
